System: S. epidermidis CW130500
Assay: microbe, parasite or virus in culture
Details: broth microdilution per CSLI guidelines, cation-adjusted Mueller Hinton Broth 2, 5 × 10^5 CFU/mL, 37 °C, 20 h, range 64–0.125 µg/mL, triplicate
Method: Minimum Inhibitory Concentrations (MIC) were determined for each of the bacteriocins and controls using a broth microdilution method, as per CSLI guidelines for microbial susceptibility testing. The peptides were dissolved in sterile deionized water to prepare the working stocks, with concentrations determined by UV absorbance at 280 nm[56]. […] The 96-well and agar plates were incubated at 37 °C, and growth was assessed by the formation of a pellet observable with the naked eye after 20 h. […]
Where no end group is shown, it is not given here. [ ]: non-standard residue; d: D form. Trp(1-Me) = Cn1cc(C[C@H](N)C(=O)O)c2ccccc21
Attribute Measured: Minimum inhibitory concentration S. epidermidis CW130500 (µg/mL)
Quick note: give the figure in µg/mL, leave out the unit.

Solved entries:
substance="MAGFLKVVQLLAKYGSKAVQWAWANKGKILDWLNAGQAIDWVVSKIKQILGIK-NH2 [L-LnqQ, L-lacticin Q (Met^1-Lys^53)]" readout_value=16
substance="MSWLNFLKYIAKYGKKAVSAALKYKGKVLEWLNVGPTLEWVWQKLKKIAGL-NH2 [L-W22L, L-aureocin A53 W22L (Met^1-Leu^51)]" readout_value=8
substance="MS[Trp(1-Me)]LNFLKYIAKYGKKAVSAAWKYKGKVLEWLNVGPTLEWVWQKLKKIAGL-NH2 [L-^1MeW3, L-aureocin A53 ^1MeTrp3 (Met^1-Leu^51)]" readout_value=4
substance="MAGFLKVVQLLAKYGSKAVQWAWANKGKILDLLNAGQAIDWVVSKIKQILGIK-NH2 (C-terminus assumed) [L-W32L, L-lacticin Q W32L (Met^1-Lys^53)]" readout_value=16
substance="MSLLNFLKYIAKYGKKAVSAAWKYKGKVLEWLNVGPTLEWVWQKLKKIAGL-NH2 [L-W3L, L-aureocin A53 W3L (Met^1-Leu^51)]" readout_value=4
substance="MSWLNFLKYIAKYGKKAVSAAWKYKGKVLEWLNVGPTLEWVWQKLKKIAGL-NH2 [L-AucA, L-aureocin A53 (Met^1-Leu^51)]" readout_value=4

// moving on: another record for Minimum inhibitory concentration S. epidermidis CW130500
Identify measured Minimum inhibitory concentration S. epidermidis CW130500 corresponding to MAGFLKVVQLLAKYGSKAVQLAWANKGKILDWLNAGQAIDWVVSKIKQILGIK-NH2 [L-W21L, L-lacticin Q W21L (Met^1-Lys^53)] 16

----------
system: S. aureus CW114125; experiment: microbe, parasite or virus in culture; details: broth microdilution per CSLI guidelines, cation-adjusted Mueller Hinton Broth 2, 5 × 10^5 CFU/mL, 37 °C, 20 h, range 64–0.125 µg/mL, average of three repeat assays
Where no end group is shown, it is not given here.
Below: a set of entries, each annotated with reported Minimum inhibitory concentration S. aureus CW114125.
# value in µg/mL; strip the unit string

Sample records with Minimum inhibitory concentration S. aureus CW114125:
substance="MSWLNFLKYIAKYGKKAVSAALKYKGKVLEWLNVGPTLEWVWQKLKKIAGL-NH2 [L-W22L, L-aureocin A53 W22L (Met^1-Leu^51)]" unit_of_measure=µg/mL readout_value=8
substance="MAGFLKVVQLLAKYGSKAVQWAWANKGKILDLLNAGQAIDWVVSKIKQILGIK-NH2 (C-terminus assumed) [L-W32L, L-lacticin Q W32L (Met^1-Lys^53)]" unit_of_measure=µg/mL readout_value=64

Could you now consider this next substance?
State Minimum inhibitory concentration S. aureus CW114125 (S. aureus CW114125) of MSWLNFLKYIAKYGKKAVSAAWKYKGKVLEWLNVGPTLEWVWQKLKKIAGL-NH2 [L-AucA, L-aureocin A53 (Met^1-Leu^51)] . 4
